Exercise: state measured mass density for each of the molecules provided.
# CONDITION_INFO: 328.15 K; 20000 kPa; Liquid; Vibrating tube method
Please respond with the number in kg/m3 and leave the unit unwritten.

Please fill in: mass density reported for `CCC(C)CC` = 655.85

Entry `CC(C)C(C)C` — recorded mass density = 653.85

Documented mass density of `CCC(C)(C)C` : 642.58

Note to self: mass density recorded for `CCCC(C)C` was 645.47

* * *

# CONDITION_INFO: 313.15 K; 5000 kPa; Liquid; Vibrating tube method
Consider the following compounds; for each one, report its mass density.
Please reply with the bare figure in kg/m3 and do not write the unit itself.

Input CC(C)C(C)C [2,3-dimethylbutane] . Output mass density: 649.18

Lookup result for CCC(C)CC [3-methylpentane] ; measured mass density: 651.77

Entry under test: CCC(C)(C)C [2,2-dimethylbutane] . Its mass density was 637.06

Summary for this compound, CCCC(C)C [2-methylpentane] : mass density is 640.96
